Reported Post-emergence action against AVEFA in % is given for each of the following compounds.
tested on: Avena fatua (AVEFA); test: Post-emergence herbicidal action against AVEFA; type: in vivo; conditions: 320 g/ha, visual rating about 3 weeks after treatment
readout_type: Post-emergence action against AVEFA in % (%)

[[record]]
compound = "COC(=O)COc1nn(-c2nc(F)ccc2F)c(-c2cncc(F)c2)c1C1CC1 [Example I-164]"
readout_type = "Post-emergence action against AVEFA in %"
u = "%"
result_number = 80

[[record]]
compound = "COC(=O)C(C)COC(=O)COc1nn(-c2ncccc2F)c(-c2ccc(F)nc2)c1C1CC1 (centres unmarked) [Example I-382]"
readout_type = "Post-emergence action against AVEFA in %"
u = "%"
result_number = 90

[[record]]
compound = "CS(=O)(=O)CCOC(=O)COc1nn(-c2ccccn2)c(-c2ccc(F)nc2)c1Br [Example I-313]"
readout_type = "Post-emergence action against AVEFA in %"
u = "%"
result_number = 80

[[record]]
compound = "COC(=O)[C@@H](C)COC(=O)COc1nn(-c2ccccn2)c(-c2cncc(F)c2)c1Br [Example I-194]"
readout_type = "Post-emergence action against AVEFA in %"
u = "%"
result_number = 90

[[record]]
compound = "COC(=O)CNC(=O)CSc1nn(-c2ccccn2)c(-c2cncnc2)c1Br [Example I-65]"
readout_type = "Post-emergence action against AVEFA in %"
u = "%"
result_number = 80

[[record]]
compound = "COC(=O)C(C)COC(=O)C(C)Oc1nn(-c2ccccn2)c(-c2ccc(F)nc2)c1Br (centres unmarked) [Example I-285]"
readout_type = "Post-emergence action against AVEFA in %"
u = "%"
result_number = 80

[[record]]
compound = "COCCOC(=O)COc1nn(-c2ccccn2)c(-c2ccc(F)nc2)c1Br [Example I-96]"
readout_type = "Post-emergence action against AVEFA in %"
u = "%"
result_number = 90

[[record]]
compound = "COC(=O)[C@@H](C)Oc1nn(-c2nc(F)ccc2F)c(-c2ccc(F)nc2)c1C1CC1 [Example I-298]"
readout_type = "Post-emergence action against AVEFA in %"
u = "%"
result_number = 90


---

system: Avena fatua (AVEFA); experiment: Post-emergence herbicidal action against AVEFA; format: in vivo; details: 320 g/ha, visual rating about 3 weeks after treatment
Examples of compounds with documented Post-emergence action against AVEFA in % follow.
readout_type: Post-emergence action against AVEFA in % (%)

[[record]]
entry_smiles = "CCOC(=O)[C@@H](C)Oc1nn(-c2nc(F)ccc2F)c(-c2cncc(F)c2)c1C1CC1"
result_number = 90

[[record]]
entry_smiles = "CCOC(=O)[C@@H](C)Oc1nn(-c2nc(F)ccc2F)c(-c2ccc(F)nc2)c1Br"
result_number = 90

[[record]]
entry_smiles = "O=C(O)COc1nn(-c2nc(F)ccc2F)c(-c2cncc(F)c2)c1C1CC1"
result_number = 80

[[record]]
entry_smiles = "CSCCOC(=O)COc1nn(-c2ccccn2)c(-c2ccc(F)nc2)c1Br"
result_number = 80

[[record]]
entry_smiles = "O=C(COc1nn(-c2ncccc2F)c(-c2ccc(F)nc2)c1C1CC1)ON=C1CCCC1"
result_number = 90

[[record]]
entry_smiles = "CCOC(=O)[C@@H](C)Oc1nn(-c2ncccc2Cl)c(-c2ccc(F)nc2)c1Br"
result_number = 100

[[record]]
entry_smiles = "O=C(O)CSc1nn(-c2ccccn2)c(-c2ccc(F)nc2)c1Br"
result_number = 100

[[record]]
entry_smiles = "COC(=O)[C@@H](C)Oc1nn(-c2ncccc2F)c(-c2ccc(F)nc2)c1I"
result_number = 80


---

Known Post-emergence action against TRZAS in % of a selection of compounds
Test system: Triticum aestivum (TRZAS)
Type: in vivo
Details: crop plant compatibility, 80 g/ha, effect vs untreated controls
Protocol: Seeds of monocotyledonous and dicotyledonous weeds and crop plants are placed in sandy loam in plastic or organic planting pots, covered with soil and cultivated in a greenhouse under controlled growth conditions. 2 to 3 weeks after sowing, the test plants are treated at the one-leaf stage. […]
readout_type: Post-emergence action against TRZAS in % (%)

[[record]]
compound = "CCOC(=O)COc1nn(-c2ccnc(F)c2)c(-c2ccc(F)nc2)c1Br [III-01]"
target_system = "Triticum aestivum (TRZAS)"
readout_type = "Post-emergence action against TRZAS in %"
result_number = 0

[[record]]
compound = "COC(=O)CCOC(=O)COc1nn(-c2ccccn2)c(-c2ccc(F)nc2)c1C1CC1(F)F (centres unmarked) [Example I-261]"
target_system = "Triticum aestivum (TRZAS)"
readout_type = "Post-emergence action against TRZAS in %"
result_number = 0

[[record]]
compound = "CCOC(=O)COc1nn(-c2ncccc2C(F)(F)F)c(-c2cncc(F)c2)c1I [Example I-225]"
target_system = "Triticum aestivum (TRZAS)"
readout_type = "Post-emergence action against TRZAS in %"
result_number = 20

[[record]]
compound = "O=C(O)C1CCN(C(=O)COc2nn(-c3ccccn3)c(-c3ccc(F)nc3)c2Br)CC1 [Example I-62]"
target_system = "Triticum aestivum (TRZAS)"
readout_type = "Post-emergence action against TRZAS in %"
result_number = 0

[[record]]
compound = "COC(=O)CNC(=O)COc1nn(-c2ccccn2)c(-c2ccc(F)nc2)c1C1CC1 [Example I-70]"
target_system = "Triticum aestivum (TRZAS)"
readout_type = "Post-emergence action against TRZAS in %"
result_number = 10

[[record]]
compound = "O=C(CSc1nn(-c2ccccn2)c(-c2cncc(F)c2)c1Br)NS(=O)(=O)c1ccccc1 [Example I-200]"
target_system = "Triticum aestivum (TRZAS)"
readout_type = "Post-emergence action against TRZAS in %"
result_number = 0

[[record]]
compound = "CCOC(=O)COc1nn(-c2ncccc2C(F)(F)F)c(-c2cncc(F)c2)c1Br [Example I-202]"
target_system = "Triticum aestivum (TRZAS)"
readout_type = "Post-emergence action against TRZAS in %"
result_number = 20

[[record]]
compound = "COCCOC(=O)COc1nn(-c2cccc(C)n2)c(-c2ccc(F)nc2)c1Cl [Example I-279]"
target_system = "Triticum aestivum (TRZAS)"
readout_type = "Post-emergence action against TRZAS in %"
result_number = 10


---

The entries below come with measured Pre-emergence action against AVEFA in % values attached.
system: Avena fatua (AVEFA); experiment: Pre-emergence herbicidal action against AVEFA; type: in vivo; conditions: 320 g/ha, visual scoring after about 3 weeks vs untreated controls
readout_type: Pre-emergence action against AVEFA in % (%)

[[record]]
molecule = "COC(=O)C(C)COC(=O)C(C)Oc1nn(-c2ccccn2)c(-c2ccc(F)nc2)c1Cl (centres unmarked)"
result_number = 90

[[record]]
molecule = "COC(=O)COc1nn(-c2ncccc2C(F)(F)F)c(-c2cncc(F)c2)c1I"
result_number = 100

[[record]]
molecule = "C[C@@H](Oc1nn(-c2ncccc2F)c(-c2ccc(F)nc2)c1C(F)(F)F)C(=O)O"
result_number = 100

[[record]]
molecule = "CCOC(=O)COc1nn(-c2ccccn2)c(-c2cncc(F)c2)c1Cl"
result_number = 80

[[record]]
molecule = "COC(=O)C(C)NC(=O)[C@@H](C)Oc1nn(-c2ccccn2)c(-c2ccc(F)nc2)c1Cl (some centres unmarked)"
result_number = 80

[[record]]
molecule = "O=C(COc1nn(-c2ncccc2F)c(-c2ccc(F)nc2)c1Br)OCc1ccccn1"
result_number = 90

[[record]]
molecule = "CCOC(=O)C(C)Oc1nn(-c2ccccn2)c(-c2ccc(F)nc2)c1Br (racemic)"
result_number = 80

[[record]]
molecule = "COCCOCCOC(=O)COc1nn(-c2ncccc2F)c(-c2ccc(F)nc2)c1Br"
result_number = 90


---

test system: Matricaria inodora (MATIN); test: Post-emergence herbicidal action against MATIN; assay type: in vivo; details: dosage 80 g/ha
readout_type: Post-emergence action against MATIN in % (%)

[[record]]
molecule = "O=C(COc1nn(-c2ncccc2F)c(-c2ccc(F)nc2)c1C1CC1)OCC1CC1 [Example I-318]"
target_system = "Matricaria inodora (MATIN)"
readout_type = "Post-emergence action against MATIN in %"
result_number = 80

[[record]]
molecule = "CCOC(=O)COc1nn(-c2ncccc2F)c(-c2ccc(F)nc2)c1F [Example I-354]"
target_system = "Matricaria inodora (MATIN)"
readout_type = "Post-emergence action against MATIN in %"
result_number = 80

[[record]]
molecule = "C[C@@H](Oc1nn(-c2ncccc2F)c(-c2ccc(F)nc2)c1Br)C(=O)O [Example I-18]"
target_system = "Matricaria inodora (MATIN)"
readout_type = "Post-emergence action against MATIN in %"
result_number = 80

[[record]]
molecule = "COC(=O)[C@H](C)COC(=O)COc1nn(-c2ccccn2)c(-c2ccc(F)nc2)c1Br [Example I-76]"
target_system = "Matricaria inodora (MATIN)"
readout_type = "Post-emergence action against MATIN in %"
result_number = 80

[[record]]
molecule = "CCOC(=O)COc1nn(-c2ncccc2F)c(-c2ccc(F)nc2)c1Br [Example I-51]"
target_system = "Matricaria inodora (MATIN)"
readout_type = "Post-emergence action against MATIN in %"
result_number = 80

[[record]]
molecule = "CCOC(=O)COc1nn(-c2ncccc2C)c(-c2ccc(F)nc2)c1Cl [Example I-316]"
target_system = "Matricaria inodora (MATIN)"
readout_type = "Post-emergence action against MATIN in %"
result_number = 80

[[record]]
molecule = "C[C@@H](Oc1nn(-c2ncccc2F)c(-c2cncc(F)c2)c1Cl)C(=O)O [Example I-165]"
target_system = "Matricaria inodora (MATIN)"
readout_type = "Post-emergence action against MATIN in %"
result_number = 80

[[record]]
molecule = "CCOC(=O)COc1nn(-c2ccccn2)c(-c2ccc(F)nc2)c1Cl [Example I-85]"
target_system = "Matricaria inodora (MATIN)"
readout_type = "Post-emergence action against MATIN in %"
result_number = 80

